The values you see were collected from ChEMBL document CHEMBL1139439.

Assay: Inhibitory activity against dihydropteroic acid synthase (SYN) from candida albicans
Conditions: read-out: I50
pIC50: −log10 of the molar value.
Entries and their pIC50 values follow.
Measure: pIC50

Nc1ccc(S(=O)(=O)c2ccccc2)cc1	4.88
Nc1ccc(S(=O)(=O)c2ccc(N)cc2)cc1	5.75
Cc1ccc(S(=O)(=O)c2ccc(N)cc2)cc1	5.00
CNc1ccc(S(=O)(=O)c2ccc(N)cc2)cc1	5.55
Nc1ccc(S(=O)(=O)c2ccc(NCC(=O)O)cc2)cc1	5.91
CCNc1ccc(S(=O)(=O)c2ccc(N)cc2)cc1	5.50

* * *

System: Candida albicans
Assay: Inhibitory effect on Candida albicans wild type YEM14 Strain
Format: functional
Measure: MIC

COc1ccc(Cc2cnc(N)nc2N)cc1OCCCCN1C(=O)c2ccccc2C1=O	> 64 µg/mL
COc1cc(Cc2cnc(N)nc2N)ccc1OCCNc1ccc(S(=O)(=O)c2ccc(N)cc2)cc1	> 64 µg/mL
COc1cc(Cc2cnc(N)nc2N)ccc1OCCCCN1C(=O)c2ccccc2C1=O	> 64 µg/mL
OC(Cn1cncn1)(Cn1cncn1)c1ccc(F)cc1F	64 µg/mL
COc1cc(OC)cc(N2C3CCC2CC(c2cnc(N)nc2N)C3)c1 (stereo unspecified)	64 µg/mL
Nc1ncc(OCc2cccc3ccccc23)c(N)n1	> 64 µg/mL

* * *

Tested on: Nakaseomyces glabratus
Experiment: Inhibitory effect on Candida glabrata YEM75 WT Strain
Type: functional
Measure: MIC (mg/L)

Nc1ncc(OCc2cccc3ccccc23)c(N)n1	16
COc1cc(OC)cc(N2C3CCC2CC(c2cnc(N)nc2N)C3)c1 (centres undefined)	4

* * *

Experiment: Inhibitory activity against dihydropteroic acid synthase (SYN) from candida albicans
Conditions: read-out: I50
IC50 vs 3 µM: less than gives True; not less than gives False.

Nc1ccc(S(=O)(=O)c2ccc(C(=O)O)cc2)cc1	True
Nc1ccc(S(=O)(=O)c2ccc(O)cc2)cc1	True
COc1ccc(S(=O)(=O)c2ccc(N)cc2)cc1	False
Nc1ccc(S(=O)(=O)c2ccc(Cl)cc2)cc1	False
CN(C)c1ccc(S(=O)(=O)c2ccc(N)cc2)cc1	False
COC(=O)CNc1ccc(S(=O)(=O)c2ccc(N)cc2)cc1	True

* * *

Target: Dihydrofolate reductase (Rattus norvegicus, UniProt Q920D2)
Sequence (Q920D2 whole entry): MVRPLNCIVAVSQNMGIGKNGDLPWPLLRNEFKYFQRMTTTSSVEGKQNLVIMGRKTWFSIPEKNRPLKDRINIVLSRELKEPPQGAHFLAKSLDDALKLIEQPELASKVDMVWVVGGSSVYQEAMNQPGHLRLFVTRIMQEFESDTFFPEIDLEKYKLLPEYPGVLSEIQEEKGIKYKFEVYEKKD
Test: Inhibitory activity against cell free dihydrofolate reductase (DHFR) from rat
Measure: I50 (uM l-1)

COc1ccc(CCc2cnc(N)nc2N)cc1OC	315.3
COc1ccc(CNc2cnc(N)nc2N)cc1	146.2
Nc1ncc(Cc2ccccc2)c(N)n1	115.3
COc1ccc(CNc2cnc(N)nc2N)cc1OC	197.3
Nc1ncc(/C=C/c2ccccc2)c(N)n1	130.6
Nc1ncc(CNc2ccccc2)c(N)n1	133.1
CC(C)(C)c1ccc(COc2cnc(N)nc2N)cc1	106
Nc1ncc(CSc2ccc3ccccc3c2)c(N)n1	110.6

* * *

Molecular target: Dihydrofolate reductase (Rattus norvegicus, UniProt Q920D2)
Sequence (Q920D2 whole entry): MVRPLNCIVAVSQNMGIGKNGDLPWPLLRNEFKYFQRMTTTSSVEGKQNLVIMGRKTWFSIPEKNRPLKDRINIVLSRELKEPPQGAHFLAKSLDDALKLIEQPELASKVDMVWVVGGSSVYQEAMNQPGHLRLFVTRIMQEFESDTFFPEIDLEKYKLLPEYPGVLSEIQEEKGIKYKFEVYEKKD
Assay: Inhibitory activity against cell free dihydrofolate reductase (DHFR) from rat
Conditions: read-out: I50
pIC50: −log10 of the molar value.
Listing of entries alongside the reported pIC50.
Measure: pIC50

COc1cc(COc2cnc(N)nc2N)ccc1OCCCNS(=O)(=O)c1ccc(C)cc1	5.34
Nc1ncc(CCc2ccccc2)c(N)n1	4.40
COc1ccc(Cc2cnc(N)nc2N)cc1OCCCCN1C(=O)c2ccccc2C1=O	5.75
Nc1ncc(Cc2ccc(OCCCCN3C(=O)c4ccccc4C3=O)cc2)c(N)n1	5.44
Nc1ncc(Cc2ccc3ccccc3c2)c(N)n1	4.21
Nc1ncc(OCc2ccc(Cl)c(Cl)c2)c(N)n1	4.25
